Recorded koff for the following binders
# Test system: T1, human ST2L (human, UniProt Q01638 19-328, limits assumed)
# T1 construct: also called IL-1R4; IL-33Ra
# T1 sequence (looked up): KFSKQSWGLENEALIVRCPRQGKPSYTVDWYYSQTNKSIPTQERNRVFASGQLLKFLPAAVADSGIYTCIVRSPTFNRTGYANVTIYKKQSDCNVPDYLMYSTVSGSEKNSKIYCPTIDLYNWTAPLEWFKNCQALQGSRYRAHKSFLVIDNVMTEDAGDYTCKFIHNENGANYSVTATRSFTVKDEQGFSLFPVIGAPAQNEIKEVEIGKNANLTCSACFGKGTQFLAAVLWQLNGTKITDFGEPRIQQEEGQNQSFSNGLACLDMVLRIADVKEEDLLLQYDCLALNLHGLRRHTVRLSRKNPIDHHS
# Procedure summary: affinity table; method not stated
Number in s⁻¹, nothing else.

| Binder | Property measured | Uom | Measured result |
| --- | --- | --- | --- |
| STLM123 (antibody, from another filing, V domains shown) VH: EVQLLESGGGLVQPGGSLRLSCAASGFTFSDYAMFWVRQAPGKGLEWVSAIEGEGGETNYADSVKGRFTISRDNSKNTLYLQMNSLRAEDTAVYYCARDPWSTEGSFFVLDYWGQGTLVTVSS VL: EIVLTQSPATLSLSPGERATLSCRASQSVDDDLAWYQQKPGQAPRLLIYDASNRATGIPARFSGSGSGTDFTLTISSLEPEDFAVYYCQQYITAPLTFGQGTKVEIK | koff | s⁻¹ | 0.000208 |

Determine from records and report koff for STLM213 (antibody, from another filing, V domains shown) VH: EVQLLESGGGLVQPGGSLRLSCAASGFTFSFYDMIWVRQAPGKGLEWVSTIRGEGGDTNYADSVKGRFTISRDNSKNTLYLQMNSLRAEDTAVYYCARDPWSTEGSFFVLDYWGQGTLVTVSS VL: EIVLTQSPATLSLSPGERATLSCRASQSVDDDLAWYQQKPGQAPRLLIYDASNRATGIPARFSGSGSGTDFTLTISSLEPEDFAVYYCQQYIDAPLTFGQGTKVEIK
0.000108
